ASSAY OVERVIEW: Cytotoxicity, neutral red uptake assay, MRC-5
Type: cell-based
MEASUREMENT CONTEXT: human, MRC-5 normal lung fibroblasts, confluent monolayers, confluent cultures, 0-1000 µM, mean ± SD
READOUT LABEL: IC50 at 24 h

compound="C=C1CCC2[C@](C)(CCC[C@]2(C)C(=O)O)[C@H]1CC[C@@H](C)CC(=O)N1CCC[C@H]1C(=O)OC (some centres unmarked) [Compound 14]" measurement="> 1000 µM"
compound="COC(=O)[C@H](Cc1c[nH]c2ccccc12)NC(=O)C[C@H](C)CCC1=C(C)CCC2[C@@](C)(C(=O)N[C@@H](Cc3c[nH]c4ccccc34)C(=O)OC)CCC[C@]12C (some centres unmarked) [Compound 10]" measurement="> 1000 µM"
compound="C=C1CCC2[C@](C)(CCC[C@]2(C)C(=O)NCC(=O)OC)[C@H]1CC[C@@H](C)CC(=O)NCC(=O)OC (some centres unmarked) [Compound 16]" measurement="> 1000 µM"
compound="C=C1CCC2[C@](C)(CCC[C@]2(C)C(=O)O)[C@H]1CC[C@@H](C)CC(=O)NCC(=O)OC (some centres unmarked) [Compound 11]" measurement="> 1000 µM"
compound="COC(=O)[C@@H](NC(=O)C[C@H](C)CCC1=C(C)CCC2[C@@](C)(C(=O)O)CCC[C@]12C)C(C)C (some centres unmarked) [Compound 2]" measurement="> 1000 µM"
